Entry source: the OligoGym collection

# Study system: MALAT1
# Condition notes: ASO, A431, 0.005 µM
After the bases stand the sugars from the 5' end (letter, count) and the backbone: PS all phosphorothioate, else s phosphorothioate and o phosphodiester by linkage. Methylation of C is not given here. k = constrained ethyl (cEt); d = 2'-deoxy (DNA)
Use 20% as the dividing line for target mRNA inhibition, with the line itself on the Satisfied side and lower values as Not satisfied.

CATGTGCCTGGAATTA (sugars k3 d10 k3, PS) | Satisfied

Does the sequence CCAATATTTGCCCCTC (sugars k3 d10 k3, PS) have recorded target mRNA inhibition that is 20% or more?
Satisfied

Check the entry GGGTTATGCTTATTCC (sugars k3 d10 k3, PS) : does target mRNA inhibition equal or exceed 20%?
Satisfied

Entry CTGCCAACTAATTGCC (sugars k3 d10 k3, PS) : is its target mRNA inhibition no less than 20%?
Not satisfied

Identify whether the reported target mRNA inhibition of the following sequence is 20% or greater: TCATATTTTAAACGGG (sugars k3 d10 k3, PS)
Satisfied

* * *

# Study system: IRF5
# Condition notes: ASO, KARPAS-229, 4 µM
After the bases stand the sugars from the 5' end (letter, count) and the backbone: PS all phosphorothioate, else s phosphorothioate and o phosphodiester by linkage. Methylation of C is not given here. e = 2'-O-(2-methoxyethyl) (MOE); k = constrained ethyl (cEt); d = 2'-deoxy (DNA)
Observable: target mRNA inhibition (%)
Give bare numbers, in %.

CTTCTGCAGGGAGTCA (sugars kkdddddddddkdkdk, PS) | 0
AGGTTCTTGGACTCTC (sugars k2 d9 e3 k2, PS) | 0
CTTGGTCTTGACCTCC (sugars k2 d8 e4 k2, PS) | 20
GATGGTGTTATCTCCG (sugars kkddddddddddkeke, PS) | 0

List the reported target mRNA inhibition of each sequence below.
1. GAGTCATGGGCTGAGG (sugars kddddddddddkekek, PS)
2. AGCTTGGTCTTGACCT (sugars kkddddddddkekekk, PS)
3. TTGTCTAGTGTCATGG (sugars kdddddddddkekeke, PS)
4. GAGTGAGACGAGCAAA (sugars kddddddddddkekek, PS)
5. GCTTGGTCTTGACCTC (sugars kkkddddddddkdkdk, PS)
6. CCAATTTTGCATTCCA (sugars k2 d8 e4 k2, PS)
7. GTTATCTCCGTCCTGG (sugars kkddddddddkekekk, PS)

[0, 0, 8, 18, 30, 48, 0]

* * *

Please provide measured target mRNA inhibition for the entries that follow.
# Study system: KRAS
# Condition notes: ASO, A431, 0.185 µM
After the bases stand the sugars from the 5' end (letter, count) and the backbone: PS all phosphorothioate, else s phosphorothioate and o phosphodiester by linkage. Methylation of C is not given here. e = 2'-O-(2-methoxyethyl) (MOE); k = constrained ethyl (cEt); d = 2'-deoxy (DNA)
Give bare numbers, in %.

Worked set:
GGAGTCTTTATAGTAA (sugars kkddddddddddkeke, PS) | 27
TCTGAATTAGTCTCCA (sugars k3 d10 k3, PS) | 0
AGGAGTCTTTATAGTA (sugars k3 d10 k3, PS) | 14
ATGGTGTAACATAGGT (sugars kkddddddddddkeke, PS) | 22
GTGTTTATGCAATGTT (sugars kkkddddddddkdkdk, PS) | 27

Please give target mRNA inhibition for each item listed below.
1. GTTTATGCAATGTTAA (sugars kkddddddddkekekk, PS)
2. GGTGTAACATAGGTTA (sugars k3 d10 k3, PS)
3. GATGGTGTAACATAGG (sugars k3 d10 k3, PS)

[27, 7, 8]
